assay: method code SF-GLC, from DOI: 10.1021/jm00326a002, PMID: 14332653
endpoint.label: logP
Provide a numeric answer; units are not to be included.

Tell me the measured logP of `CC(=O)CCC1CC1` , please.
1.5

====

Consider the following compounds and their measured logP readings.
test: method code SF, from DOI: 10.1021/jm00326a002, PMID: 14332653

INSERT INTO measurements (line_notation, result) VALUES
  ('COC(=O)CCCCC(C)=O', 0.55);

Let us examine a further case.
Tell me the measured logP of `COC(=O)CCC(C)=O` , please.
-0.13
